# ASSAY SYSTEM: Broad substrate specificity ATP-binding cassette transporter ABCG2 (Homo sapiens, UniProt Q9UNQ0)
# Sequence (Q9UNQ0 whole entry): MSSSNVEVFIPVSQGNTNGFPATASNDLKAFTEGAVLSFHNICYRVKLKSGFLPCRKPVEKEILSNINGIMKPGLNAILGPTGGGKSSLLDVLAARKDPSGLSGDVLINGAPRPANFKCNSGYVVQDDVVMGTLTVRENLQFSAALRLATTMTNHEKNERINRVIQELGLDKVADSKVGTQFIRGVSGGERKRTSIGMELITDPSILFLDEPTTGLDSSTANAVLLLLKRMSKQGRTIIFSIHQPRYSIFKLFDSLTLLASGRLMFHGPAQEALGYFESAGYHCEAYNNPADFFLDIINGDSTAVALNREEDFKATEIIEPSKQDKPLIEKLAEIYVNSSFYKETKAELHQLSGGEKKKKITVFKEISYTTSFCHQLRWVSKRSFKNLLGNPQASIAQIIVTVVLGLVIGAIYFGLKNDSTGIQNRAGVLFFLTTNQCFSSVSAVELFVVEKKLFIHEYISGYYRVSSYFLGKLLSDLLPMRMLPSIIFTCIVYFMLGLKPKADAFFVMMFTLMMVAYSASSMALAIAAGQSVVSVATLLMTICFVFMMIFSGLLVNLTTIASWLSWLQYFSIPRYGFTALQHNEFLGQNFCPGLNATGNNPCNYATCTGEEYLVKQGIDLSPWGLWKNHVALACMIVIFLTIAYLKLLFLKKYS
# ASSAY PROTOCOL: Inhibition of recombinant human GFP-fused ABCG2 expressed in MDCK2 cells assessed as reduction in Hoechst 33342 efflux preincubated for 30 mins followed by Hoechst 33342 addition measured immediately at 60 sec time interval for 120 mins by fluorescence assay
# Assay type: cell-based, MDCK-II
pIC50: −log10 of the molar value.

{"STRUCTURE": "CC(C)c1ccc(-n2nnc(-c3ccccc3NC(=O)c3ccc(C(F)(F)F)cc3)n2)cc1", "VALUE QUALIFIER": "<", "pIC50": 5.00}
{"STRUCTURE": "CCCc1ccc(C(=O)Nc2ccccc2-c2nnn(-c3ccc(SC)cc3)n2)cc1", "VALUE QUALIFIER": "=", "pIC50": 6.11}
{"STRUCTURE": "CCOc1ccc(-n2nnc(-c3ccccc3NC(=O)c3ccc(OC)cc3)n2)cc1", "VALUE QUALIFIER": "=", "pIC50": 6.10}
{"STRUCTURE": "CCCc1ccc(C(=O)Nc2ccccc2-c2nnn(-c3ccc(Oc4ccccc4)cc3)n2)cc1", "VALUE QUALIFIER": "<", "pIC50": 5.00}
{"STRUCTURE": "COc1ccc(C(=O)Nc2ccccc2-c2nnn(-c3ccc(C(C)C)cc3)n2)cc1", "VALUE QUALIFIER": "=", "pIC50": 6.87}
{"STRUCTURE": "O=C(Nc1ccccc1-c1nnn(-c2ccc(Cl)cc2)n1)c1ccc([N+](=O)[O-])cc1", "VALUE QUALIFIER": "<", "pIC50": 5.00}
{"STRUCTURE": "COc1ccc(C(=O)Nc2ccccc2-c2nnn(-c3ccc(OC)c(OC)c3)n2)cc1", "VALUE QUALIFIER": "=", "pIC50": 6.50}
{"STRUCTURE": "CCCc1ccc(C(=O)Nc2ccccc2-c2nnn(-c3ccc(O)cc3)n2)cc1", "VALUE QUALIFIER": "=", "pIC50": 6.69}
{"STRUCTURE": "COc1ccc(-n2nnc(-c3ccccc3NC(=O)c3ccccc3[N+](=O)[O-])n2)cc1", "VALUE QUALIFIER": "=", "pIC50": 6.58}
